Values compiled from paper PMC12416549.

Molecular target: T1, TNFR1 (Homo sapiens, UniProt P19438)
T1 chain: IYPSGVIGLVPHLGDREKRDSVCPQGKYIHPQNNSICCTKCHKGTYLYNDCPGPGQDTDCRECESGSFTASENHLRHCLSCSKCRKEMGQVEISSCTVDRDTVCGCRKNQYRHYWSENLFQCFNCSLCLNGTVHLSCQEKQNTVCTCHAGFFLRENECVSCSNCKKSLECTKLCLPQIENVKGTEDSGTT
Test: yeast display SC50
Criterion: apparent Kd (screen) strictly under 1 nM. Met: true (1). Not met: false (0).

Reference set (3 entries):
binder: K31T (designed binder) SMEEEVEKAAKEYEKKKKEAIEKHLEKLKATDKEAAERFLKELEEAAKEYAKDEAKTMSEEEAKRRAKKYKEKVLLSELSEEEQKEIKEAEEKLVRTILKYVEEAAK
class: true (1)
--
binder: L75T (designed binder) SMEEEVEKAAKEYEKKKKEAIEKHLEKLKAKDKEAAERFLKELEEAAKEYAKDEAKTMSEEEAKRRAKKYKEKVTLSELSEEEQKEIKEAEEKLVRTILKYVEEAAK
class: true (1)
--
binder: V95C (designed binder) SMEEEVEKAAKEYEKKKKEAIEKHLEKLKAKDKEAAERFLKELEEAAKEYAKDEAKTMSEEEAKRRAKKYKEKVLLSELSEEEQKEIKEAEEKLCRTILKYVEEAAK
class: false (0)

Asked: Please state whether apparent Kd (screen) is below 1 nM for K31S (designed binder) SMEEEVEKAAKEYEKKKKEAIEKHLEKLKASDKEAAERFLKELEEAAKEYAKDEAKTMSEEEAKRRAKKYKEKVLLSELSEEEQKEIKEAEEKLVRTILKYVEEAAK
Given back: true (1)

Asked: Please state whether apparent Kd (screen) is below 1 nM for A55R (designed binder) SMEEEVEKAAKEYEKKKKEAIEKHLEKLKAKDKEAAERFLKELEEAAKEYAKDERKTMSEEEAKRRAKKYKEKVLLSELSEEEQKEIKEAEEKLVRTILKYVEEAAK
Given back: false (0)

Asked: Please state whether apparent Kd (screen) is below 1 nM for K68Y (designed binder) SMEEEVEKAAKEYEKKKKEAIEKHLEKLKAKDKEAAERFLKELEEAAKEYAKDEAKTMSEEEAKRRAYKYKEKVLLSELSEEEQKEIKEAEEKLVRTILKYVEEAAK
Given back: false (0)
